Test: HeLa cell cytotoxicity, dose response, cytotoxicity control, ATP luminescence, cherry-pick samples (AID 687004);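 further: 0% = neutral control median and -100% = staurosporine 10 µM control median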
Conditions: HeLa viability, ATP luminescence (CellTiter-Glo), 48 h; series mostly up to 26 µM
Results with a measured potency or affinity are listed apart. The source made the active and inactive calls.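 How the source made its calls: active means a fitted half-maximal concentration no higher than twice the top valid tested dose, with signal falling as cells die; inconclusive means flat curve between -70% and -30%, or poor fit; inactive means the rest, including signal rising instead of falling.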
Metric: activity change, negative = cytotoxicity

Test Smiles: Cc1ccc(S(=O)(=O)N(C)C[C@@H]2Oc3ccc(NS(=O)(=O)c4ccc(Cl)cc4)cc3CC(=O)N([C@@H](C)CO)C[C@@H]2C)cc1
activity change, negative = cytotoxicity: inactive
--
Test Smiles: C[C@@H]1CN([C@H](C)CO)C(=O)Cc2cc(NC(=O)Nc3cccc4ccccc34)ccc2O[C@@H]1CN(C)Cc1ccc(C(=O)O)cc1
activity change, negative = cytotoxicity: inactive
--
Test Smiles: O=C(Cc1cccs1)N1CCN(c2cccc(Cl)c2)CC1
activity change, negative = cytotoxicity: inactive
--
Test Smiles: Cc1cc(C(=O)NC(=S)Nc2ccccc2N2CCCC2)ccc1[N+](=O)[O-]
activity change, negative = cytotoxicity: inactive
--
Test Smiles: O=C(C[C@H]1CC[C@H](NC(=O)Nc2ccc(C(F)(F)F)cc2)[C@H](CO)O1)NCc1cccc(F)c1
activity change, negative = cytotoxicity: inactive
--
Test Smiles: COc1ccc(CN(C)C[C@@H]2Oc3ccc(NC(=O)Nc4ccc(F)cc4)cc3CC(=O)N([C@H](C)CO)C[C@H]2C)cc1
activity change, negative = cytotoxicity: inactive
--
Test Smiles: CO[C@H]1CN(C)C(=O)c2cc(NC(C)=O)ccc2OC[C@H](C)N(Cc2cccc(F)c2)C[C@@H]1C
activity change, negative = cytotoxicity: inactive

Next molecule, please.
Record CO[C@@H]1CN(C)C(=O)c2cc(NC(=O)C3CCOCC3)ccc2OC[C@H](C)NC[C@@H]1C , field activity change, negative = cytotoxicity: inactive

====

Experiment: MM1S myeloma cell viability, profiling panel, resazurin fluorescence, basal, 24 h, PK04 Diversity Set (AID 1174);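 further: MM1S multiple myeloma cell line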
Settings: higher = more signal, called active from +8 up or from −8 down
Threshold check on z-score: at or above 1 gives True, strictly below gives False.

As a guide, the following entries are already answered.
Molecule: O=C1c2ccccc2[C@](Cc2ccccc2I)(C(=O)O)[C@H](c2ccc(CO)cc2)N1Cc1ccccc1Cl
Category Label: True
--
Molecule: COCCOC(=O)N1C(=O)[C@@]2(c3cc(C#CC4(O)CCCCCC4)ccc31)[C@H](C(=O)NC[C@H](O)c1ccccc1)[C@H]1C(=O)O[C@H](c3ccccc3)[C@H](c3ccccc3)N1[C@@H]2c1ccccc1OCCO
Category Label: False
--
Molecule: COC(=O)C(CC#Cc1ccc2c(c1)[C@]1(C(=O)N2)[C@H](C(N)=O)[C@H]2C(=O)O[C@H](c3ccccc3)[C@H](c3ccccc3)N2[C@@H]1c1ccc(O)cc1)C(=O)OC
Category Label: True
--
Molecule: CC(C)C[C@@H]1NC(=O)[C@@]23C(=O)N[C@@H](Cc4ccccc4)C2[C@H](C)[C@@]2(C)O[C@H]2C3/C=C/C/C=C\CNC(=O)[C@H](Cc2ccccc2)NC1=O (stereo partly drawn)
Category Label: False
--
Molecule: COc1ccc([Si](C)(C)[C@@H]2[C@@H](CCn3cc([C@H](O)c4ccccc4)nn3)O[C@]3(C(=O)N(C)c4c(Br)cc(C)cc43)[C@H]2C)cc1
Category Label: False
--
Molecule: CC(C)C[C@@H]1NC(=O)[C@H]2C[C@@H](C(=O)NCCCC[N+](C)(C)C)[C@@H](c3cccc(OCCO)c3)N2C1=O
Category Label: False

Task: Kindly determine if z-score recorded for C=CCC1(CC=C)C[C@H]2CO[C@H](c3ccc(OC)cc3)N2C1=O is above or exactly 1.
Result: False

Task: Kindly determine if z-score recorded for COCCOC(=O)N1C(=O)[C@@]2(c3cc(C#CC4(O)CCCCCC4)ccc31)[C@H](c1ccc(O)cc1)N1[C@H](c3ccccc3)[C@H](c3ccccc3)OC(=O)[C@H]1[C@@H]2C(N)=O is above or exactly 1.
Result: False

Task: Kindly determine if z-score recorded for CCOC(=O)C[C@H]1[C@H](OC(=O)c2cc3ccccc3oc2=O)[C@@H](NC(=O)c2ccccc2)c2cc(OCCCO)ccc2N1C(=O)Cc1ccc(OC)cc1 is above or exactly 1.
Result: False

Task: Kindly determine if z-score recorded for C=C(COC)/C(=C/C[C@H](OC(C)=O)c1ccc(CO)o1)c1cnc2ccccc2c1 is above or exactly 1.
Result: True

Task: Kindly determine if z-score recorded for COCCCNC(=O)[C@@]1(CCS(=O)(=O)c2ccccc2)N=C(c2ccc(OCCCO)cc2)O[C@H]1c1ccccc1CN=[N+]=[N-] is above or exactly 1.
Result: True

Task: Kindly determine if z-score recorded for CC(C)(C)OC(=O)CC[C@@]12N=C(c3ccc(OCCCO)cc3)O[C@@H]1c1ccccc1CN(Cc1ccccc1)C2=O is above or exactly 1.
Result: False

====

Test: cytotoxicity in IOSE-T80 ovarian epithelial cells, dose response, selectivity assay for PAX8 inhibitor project, cell-based, cherry-pick (AID 687032);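 further: cells exposed to compound for 96 h before reading; 0% = neutral control wells and -100% = 2 µM mitoxantrone kill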
Details: CellTiterGlo ATP luminescence, 96 h; series mostly up to 35 µM
Measured potencies and affinities stand elsewhere. Inconclusive results are not listed. Active and inactive are the calls of the source.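 Rule for the calls: active = fitted half-maximal concentration for viability loss no higher than twice the top valid dose, in every repeat run; inconclusive = repeat runs disagree, flat partial loss, or poor curve fit; inactive = the rest.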
Metric: outcome

Compound: COc1cccc(S(=O)(=O)N(C)C[C@H]2OCc3ccccc3-c3c(n(C)c4ccccc34)C(=O)N([C@@H](C)CO)C[C@H]2C)c1
Result: inactive
//
Compound: C[C@H]1CN([C@@H](C)CO)S(=O)(=O)c2ccc(C#Cc3ccc(F)cc3)cc2O[C@H]1CN(C)C(=O)NC1CCCCC1
Result: inactive
//
Compound: COC(=O)C1=C(C)N(Cc2cccc(C(F)(F)F)c2)C(=NCC2CC2)NC1c1cccc(C(F)(F)F)c1 (centres undefined)
Result: inactive
//
Compound: O=c1c2ccccc2cnn1-c1nc2ccccc2[nH]1
Result: inactive

====

The compounds listed here are annotated with their z-score.
Assay: basal HepG2 mitochondrial membrane potential changes, profiling panel, cell-based, JC-1 fluorescence, 24 h, 100 nL compound (AID 1167)
Details: higher = more signal

Compound: O=C(NCc1ccccc1)[C@@H]1c2ccccc2C(=O)N(Cc2ccccc2Cl)[C@H]1c1ccc(CO)cc1
Metric: z-score
Result: 1.99

Record C=C(C(=O)CC[C@@H](OC(C)=O)c1ccccc1OCCO)C(C)C , field z-score: -0.75

Record C=C(CCCC)/C(=C/C[C@@H](OC(=O)c1ccncc1)c1ccc(OCCO)cc1)c1cnc2ccccc2c1 , field z-score: 2.07

Record CCCCC(=C=CC[C@@H](O)c1ccc(OCCO)cc1)C[C@@H](O)c1cc(Cl)cc(Cl)c1O , field z-score: -0.376

Record CO[C@H]1O[C@H](CO)[C@@H](OC(=O)Nc2ccccc2)[C@H](OC(=O)Nc2ccc3c(c2)OCO3)[C@H]1OC(=O)Nc1ccc2c(c1)OCO2 , field z-score: -0.136

Record C=C(/C(=C/C[C@H](OC(=O)c1ccncc1)c1cccc(OCCO)c1)c1cc(C(=O)OC)ccc1OC)C(C)C , field z-score: 2.15

====

Experiment: cytotoxicity in PAX8-dependent RMG-1 cells, dose response, cell-based, cherry-pick (AID 687029);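 further: cells exposed to compound for 96 hours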
Details: RMG-1 viability, CellTiterGlo ATP luminescence, 96 h; series mostly up to 35 µM
Measured potencies and affinities stand elsewhere. The source made the active and inactive calls.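 How the source made its calls: active means signal drop whose fitted half-maximal concentration is at most twice the top valid dose, in every test run; inconclusive means mixed calls across runs, poor fit, or flat 30 to 70% inhibition; inactive means wrong direction, flat within 30%, or potency beyond limit.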

Test Smiles: C[C@@H]1CCCCO[C@H](CN(C)Cc2ccncc2)[C@H](C)CN([C@@H](C)CO)C(=O)c2cc(NC(=O)NC3CCCCC3)ccc2O1
activity change, negative = inhibition: inactive
//
Test Smiles: C[C@@H]1CN([C@@H](C)CO)C(=O)Cc2cc(NC(=O)Nc3ccccc3)ccc2O[C@H]1CN(C)Cc1ccc(Oc2ccccc2)cc1
activity change, negative = inhibition: inactive
//
Test Smiles: C[C@H]1CCCCO[C@@H](CN(C)Cc2ccc(C(=O)O)cc2)[C@@H](C)CN([C@@H](C)CO)C(=O)c2cc(NS(=O)(=O)c3ccc(Cl)cc3)ccc2O1
activity change, negative = inhibition: inactive

====

Test: cytotoxicity in PAX8-dependent RMG-1 cells, dose response, cell-based, cherry-pick (AID 687029);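 further: cells exposed to compound for 96 hours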
Settings: RMG-1 viability, CellTiterGlo ATP luminescence, 96 h; series mostly up to 35 µM
Potency and affinity values are given separately. The source made the active and inactive calls.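 How the source made its calls: active means signal drop whose fitted half-maximal concentration is at most twice the top valid dose, in every test run; inconclusive means mixed calls across runs, poor fit, or flat 30 to 70% inhibition; inactive means wrong direction, flat within 30%, or potency beyond limit.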

Molecule: CCCC#Cc1ccc([C@H]2[C@@H](CO)N(C(=O)C3CCCCC3)[C@H]2C#N)cc1
activity change, negative = inhibition: inactive
--
Molecule: Cc1cccc(N(C)S(=O)(=O)c2ccc(-c3cnc(C4CC4)o3)cc2)c1
activity change, negative = inhibition: inactive
--
Molecule: C[C@@H]1CCCCO[C@@H](CN(C)C(=O)Cc2ccccc2)[C@@H](C)CN([C@@H](C)CO)C(=O)c2cc(NC(=O)Nc3ccc(C(F)(F)F)cc3)ccc2O1
activity change, negative = inhibition: inactive
--
Molecule: COc1ccc(CN2C(=O)C(CC(=O)NCCCCc3ccccc3)CC(C(=O)N3CCOCC3)=C2C)cc1 (centres undefined)
activity change, negative = inhibition: inactive
